Target: T1, human FcγRIIa-H (the high-affinity H131 variant) (human, UniProt P12318 34-317)
T1 sequence (looked up): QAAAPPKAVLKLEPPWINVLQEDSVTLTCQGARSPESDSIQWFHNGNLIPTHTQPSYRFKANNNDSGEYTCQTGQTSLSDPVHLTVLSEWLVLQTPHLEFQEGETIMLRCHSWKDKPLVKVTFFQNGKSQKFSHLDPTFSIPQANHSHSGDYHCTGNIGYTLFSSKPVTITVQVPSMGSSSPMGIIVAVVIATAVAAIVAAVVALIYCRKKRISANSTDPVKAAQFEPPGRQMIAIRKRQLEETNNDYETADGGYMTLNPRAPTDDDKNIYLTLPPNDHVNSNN
Assay: cell-based or functional assay
propertyName: Avg ΔActivity Rank
Number only, no unit.

>  <binder>
AIP-182606 (antibody, V domains shown) VH: EVQLVESGGALVKPGGSLRLSCAASGFTFSKAWMSWVRQAPGKGLEWVGRIKSVTDGETTDYAAPVKGRFTISRDDSKSTLYLQMNSLKTEDTAVYYCTSSFSCRGGSCPSHDTSYGGQYKSYYYMDVWGKGTTVTVSS VL: QSVLTQPPSASGTPGQRVTISCSGSSSNIGSSSVSWYQQLPGTAPKLLIYKNNQRPSGVPDRFSGSKSGTSASLAISGLRSEDEADYYCSTWDDSLSVRVFGGGTKLTVL

>  <Avg ΔActivity Rank>
2

$$$$

## Input // query Avg ΔActivity Rank value for entry AIP-114111 (antibody, V domains shown) VH: EVQLVESGGALVKPGGSLRLSCAASGFTFSKAWMSWVRQAPGKGLEWVGRIKSVTDGETTDYAAPVKGRFTISRDDSKSTLYLQMNSLKTEDTAVYYCTSSFCCRGGSCPSHDTSYCGGQYKSSYYYMDVWGKGTTVTVSS VL: QSVLTQPPSASGTPGQRVTISCSGSSSNIGSSSVSWYQQLPGTAPKLLIYKNNQRPSGVPDRFSGSKSGTSASLAISGLRSEDEADYYCSTWDDSLSVRVFGGGTKLTVL
## Output 2

## Input Field entry: AIP-163723 (antibody, V domains shown) VH: EVQLVESGGALVKPGGSLRLSCAASGFTFSKAWMSWVRQAPGKGLEWVGRIKSVTDGETTDYAAPVKGRFTISRDDSKSTLYLQMNSLKTEDTAVYYCTSSFCCRGGSCPSHDTSYCGGQKSYYYMDVWGKGTTVTVSS VL: QSVLTQPPSASGTPGQRVTISCSGSSSNIGSSSVSWYQQLPGTAPKLLIYKNNQRPSGVPDRFSGSKSGTSASLAISGLRSEDEADYYCSTWDDSLSVRVFGGGTKLTVL
## Output 2
